B1: TMEM175 (parent)
chain: QTSAFARQPRDELERVRVSCTIIF

# Variants of: B1
# ASSAY SUMMARY: protein stability index of a GFP-peptide fusion (GPS, HEK-293T) (PSI 1-6); higher = more stable;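 further: lentivirally expressed fusions sorted by FACS into six bins by GFP to DsRed ratio, PSI derived from sequencing read proportions per bin multiplied by bin number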
# CONDITION PARAMETERS: c terminus: a fixed tail appended
Classification field: enter 1 for protein stability index values not below 2, -1 for values below it.

Hello, I need to know if R7I has measured protein stability index not below 2. Thanks!
1

Hello, I need to know if A4G has measured protein stability index not below 2. Thanks!
1

Hello, I need to know if V16S has measured protein stability index not below 2. Thanks!
-1

Hello, I need to know if L13G has measured protein stability index not below 2. Thanks!
-1

Hello, I need to know if P9L has measured protein stability index not below 2. Thanks!
1

Hello, I need to know if V16Q has measured protein stability index not below 2. Thanks!
1

Hello, I need to know if P9K has measured protein stability index not below 2. Thanks!
-1

Hello, I need to know if R10E has measured protein stability index not below 2. Thanks!
1

Hello, I need to know if A4D has measured protein stability index not below 2. Thanks!
1

Hello, I need to know if L13C has measured protein stability index not below 2. Thanks!
1

Hello, I need to know if P9S has measured protein stability index not below 2. Thanks!
-1

Hello, I need to know if R7T has measured protein stability index not below 2. Thanks!
1

Hello, I need to know if S19R has measured protein stability index not below 2. Thanks!
-1

Hello, I need to know if L13I has measured protein stability index not below 2. Thanks!
-1

Hello, I need to know if T21I has measured protein stability index not below 2. Thanks!
1

Hello, I need to know if A4P has measured protein stability index not below 2. Thanks!
1

Hello, I need to know if R15Q has measured protein stability index not below 2. Thanks!
-1

Hello, I need to know if Q1K has measured protein stability index not below 2. Thanks!
1

Hello, I need to know if A4L has measured protein stability index not below 2. Thanks!
1

Hello, I need to know if A4T has measured protein stability index not below 2. Thanks!
1

Hello, I need to know if F5E has measured protein stability index not below 2. Thanks!
-1

Hello, I need to know if S3W has measured protein stability index not below 2. Thanks!
1

Hello, I need to know if D11A has measured protein stability index not below 2. Thanks!
1

Hello, I need to know if A6M has measured protein stability index not below 2. Thanks!
-1

Hello, I need to know if T21L has measured protein stability index not below 2. Thanks!
1

Hello, I need to know if F24K has measured protein stability index not below 2. Thanks!
1

Hello, I need to know if E14A has measured protein stability index not below 2. Thanks!
-1

Hello, I need to know if F5P has measured protein stability index not below 2. Thanks!
1

Hello, I need to know if R10H has measured protein stability index not below 2. Thanks!
1

Hello, I need to know if I22E has measured protein stability index not below 2. Thanks!
1

Hello, I need to know if R17E has measured protein stability index not below 2. Thanks!
1

Hello, I need to know if I22D has measured protein stability index not below 2. Thanks!
1

Hello, I need to know if V18Q has measured protein stability index not below 2. Thanks!
-1

Hello, I need to know if D11T has measured protein stability index not below 2. Thanks!
1

Hello, I need to know if E12C has measured protein stability index not below 2. Thanks!
1

Hello, I need to know if R7A has measured protein stability index not below 2. Thanks!
1

Hello, I need to know if L13F has measured protein stability index not below 2. Thanks!
1

Hello, I need to know if T2S has measured protein stability index not below 2. Thanks!
1

Hello, I need to know if E14V has measured protein stability index not below 2. Thanks!
1

Hello, I need to know if R15V has measured protein stability index not below 2. Thanks!
1

Hello, I need to know if V18G has measured protein stability index not below 2. Thanks!
-1

Hello, I need to know if P9G has measured protein stability index not below 2. Thanks!
1

Hello, I need to know if R17C has measured protein stability index not below 2. Thanks!
-1
